# Tested on: U2OS
# Experimental details: Multiplex assay against U2OS
# Type: toxicity, cell-based
# Reported conditions: human, 12 h, 10 µM, compound concentration 10 uM, replicate 1
Metric name: Population Fragmented Nuclei (%)
Give the value in % but do not write % after it.

A selection of reference data follows.
Molecule	Population Fragmented Nuclei (%)
Cl.Clc1ccc2nsnc2c1NC1=NCCN1 [TIZANIDINE HYDROCHLORIDE]	31
Cc1nc2ccc(Oc3ccc(F)cc3)cc2c(=O)n1C[C@H]1CCCN(C(C)C)C1.Cl	25
CSCC[C@H](NC=O)C(=O)N[C@@H](CC(C)C)C(=O)N[C@@H](Cc1ccccc1)C(=O)O	23
CCCC(CCC)C(=O)O	30
CC(C)(C)c1ccc(S(=O)(=O)Nc2ccc(Cl)cc2C(=O)c2cc[n+]([O-])cc2)cc1	24

As a next step, examine the molecule that follows.
Entry `CN1CCN(c2nc3cc(C(F)(F)F)ccc3n3cccc23)CC1.O=C(O)/C=C\C(=O)O.O=C(O)/C=C\C(=O)O` : reported Population Fragmented Nuclei (%) = ?
31
